# target_or_test_system: TchiGR43a (Trichogramma chilonis, UniProt A0A481RL18)
# Construct: full-length open reading frame (549 amino acid residues), expressed in Xenopus laevis oocytes
# Sequence (A0A481RL18 1-549): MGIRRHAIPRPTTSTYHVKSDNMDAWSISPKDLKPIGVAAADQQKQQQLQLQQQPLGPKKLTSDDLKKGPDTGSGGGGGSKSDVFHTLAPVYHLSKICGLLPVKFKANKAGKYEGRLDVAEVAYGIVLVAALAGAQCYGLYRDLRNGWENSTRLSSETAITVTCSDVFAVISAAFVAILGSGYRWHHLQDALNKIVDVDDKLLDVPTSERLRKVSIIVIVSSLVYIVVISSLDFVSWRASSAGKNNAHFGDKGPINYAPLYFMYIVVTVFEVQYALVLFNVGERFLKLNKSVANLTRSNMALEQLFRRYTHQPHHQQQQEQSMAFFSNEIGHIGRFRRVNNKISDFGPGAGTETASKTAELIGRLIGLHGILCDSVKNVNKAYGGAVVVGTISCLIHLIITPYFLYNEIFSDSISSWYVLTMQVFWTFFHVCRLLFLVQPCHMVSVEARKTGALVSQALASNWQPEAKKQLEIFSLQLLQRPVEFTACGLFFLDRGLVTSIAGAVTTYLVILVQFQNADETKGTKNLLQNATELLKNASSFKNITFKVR
# run_description: two-electrode voltage-clamp of Xenopus oocytes expressing TchiGR43a, dose-response
pEC50: −log10 of the molar value.

smiles_text | target_or_test_system | pEC50
O=C(CO)[C@@H](O)[C@H](O)[C@H](O)CO | TchiGR43a (Trichogramma chilonis, UniProt A0A481RL18) | 1.64
